targetUnderTest: Tyrosine-protein phosphatase non-receptor type 1 (Homo sapiens)
Sequence (P18031 whole entry): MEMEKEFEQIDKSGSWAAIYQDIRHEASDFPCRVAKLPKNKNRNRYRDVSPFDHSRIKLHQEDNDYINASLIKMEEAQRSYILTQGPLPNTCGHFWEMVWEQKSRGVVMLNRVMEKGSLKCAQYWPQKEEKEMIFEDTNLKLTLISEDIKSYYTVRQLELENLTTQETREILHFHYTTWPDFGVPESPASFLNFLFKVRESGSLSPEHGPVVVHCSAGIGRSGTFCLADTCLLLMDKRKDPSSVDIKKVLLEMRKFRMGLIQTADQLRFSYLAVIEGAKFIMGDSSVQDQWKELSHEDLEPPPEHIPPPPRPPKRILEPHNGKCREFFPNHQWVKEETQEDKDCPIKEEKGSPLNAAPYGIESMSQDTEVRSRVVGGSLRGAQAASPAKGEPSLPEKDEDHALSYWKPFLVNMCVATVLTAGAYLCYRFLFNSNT
outcomeMeasure: log10 IC50 (log10 of the value in µM)

[
  {
    "testSmiles": "O=S(=O)(Nc1ccc(-c2nc3cc(NS(=O)(=O)c4ccc5ncsc5c4)ccc3o2)cc1)c1ccc2ncsc2c1",
    "log10 IC50": 0.85
  },
  {
    "testSmiles": "O=S(=O)(Nc1ccc2oc(-c3ccccc3)nc2c1)c1ccccc1C(F)(F)F",
    "log10 IC50": 1.64
  },
  {
    "testSmiles": "O=S(=O)(Nc1ccc(-c2nc3cc(NS(=O)(=O)c4cccc5ccccc45)ccc3o2)cc1)c1ccc(Cl)s1",
    "log10 IC50": 0.81
  },
  {
    "testSmiles": "O=S(=O)(Nc1ccc(-c2nc3cc(NS(=O)(=O)c4ccc5nsnc5c4)ccc3o2)cc1)c1ccc2nsnc2c1",
    "log10 IC50": 0.90
  },
  {
    "testSmiles": "O=S(=O)(Nc1ccc2oc(-c3ccccc3)nc2c1)c1ccc(Cl)c(Cl)c1",
    "log10 IC50": 1.54
  },
  {
    "testSmiles": "N#Cc1ccc(S(=O)(=O)Nc2ccc(-c3nc4cc(NS(=O)(=O)c5ccc(C#N)cc5)ccc4o3)cc2)cc1",
    "log10 IC50": 1.57
  },
  {
    "testSmiles": "O=[N+]([O-])c1ccccc1S(=O)(=O)Nc1ccc(-c2nc3cc(NS(=O)(=O)c4ccccc4[N+](=O)[O-])ccc3o2)cc1",
    "log10 IC50": 1.45
  },
  {
    "testSmiles": "O=S(=O)(Nc1ccc(-c2nc3cc(NS(=O)(=O)c4ccccc4O)ccc3o2)cc1)c1ccccc1O",
    "log10 IC50": 1.36
  },
  {
    "testSmiles": "O=S(=O)(Nc1ccc2oc(-c3ccc(NS(=O)(=O)c4ccc(Cl)s4)cc3)nc2c1)c1ccc(Cl)c(Cl)c1",
    "log10 IC50": 0.88
  },
  {
    "testSmiles": "O=S(=O)(Nc1ccc2oc(-c3ccccc3)nc2c1)c1cccc(F)c1",
    "log10 IC50": 1.85
  },
  {
    "testSmiles": "O=S(=O)(Nc1ccc(-c2nc3cc(NS(=O)(=O)c4ccccc4C(F)(F)F)ccc3o2)cc1)c1ccccc1C(F)(F)F",
    "log10 IC50": 1.15
  },
  {
    "testSmiles": "O=S(=O)(Nc1ccc2oc(-c3ccccc3)nc2c1)c1ccc(Cl)c(C(F)(F)F)c1",
    "log10 IC50": 1.60
  },
  {
    "testSmiles": "O=S(=O)(Nc1ccc(-c2nc3cc(NS(=O)(=O)c4ccc(O)cc4)ccc3o2)cc1)c1ccc(O)cc1",
    "log10 IC50": 1.43
  },
  {
    "testSmiles": "O=S(=O)(Nc1ccc(-c2nc3cc(NS(=O)(=O)c4cccc5nonc45)ccc3o2)cc1)c1ccc(Cl)s1",
    "log10 IC50": 1.20
  },
  {
    "testSmiles": "O=c1ccc2cc(S(=O)(=O)Nc3ccc(-c4nc5cc(NS(=O)(=O)c6ccc7oc(=O)ccc7c6)ccc5o4)cc3)ccc2o1",
    "log10 IC50": 0.80
  },
  {
    "testSmiles": "O=S(=O)(Nc1ccc(-c2nc3cc(NS(=O)(=O)c4ccc(Cl)s4)ccc3o2)cc1)c1ccccc1",
    "log10 IC50": 1.28
  },
  {
    "testSmiles": "O=S(=O)(Nc1ccc(-c2nc3ccccc3o2)cc1)c1ccc(C(F)(F)F)cc1",
    "log10 IC50": 1.54
  },
  {
    "testSmiles": "O=c1ccc2cc(S(=O)(=O)Nc3ccc4oc(-c5ccc(NS(=O)(=O)c6ccc(Cl)s6)cc5)nc4c3)ccc2o1",
    "log10 IC50": 1.11
  },
  {
    "testSmiles": "O=S(=O)(Nc1ccc(-c2nc3ccccc3o2)cc1)c1ccccc1",
    "log10 IC50": 1.81
  },
  {
    "testSmiles": "COc1cccc(S(=O)(=O)Nc2ccc3oc(-c4ccccc4)nc3c2)c1",
    "log10 IC50": 1.93
  }
]
